// provenance: patent US20230295118A1

# SYSTEM NAME: CDK6 (Homo sapiens)
# Construct: endogenous in cells
# TEST SUMMARY: CDK6 degradation (DC50, Dmax)
# Format: cell-based
EXPERIMENTAL ENDPOINT: Dmax

>>> reported_result("Cc1nc2c(F)cc(-c3nc(Nc4ccc(CC5CCN(C6CCN(c7ccc(C(=O)NC8CCC(=O)NC8=O)cc7)CC6)CC5)cn4)ncc3F)cc2n1C(C)C (stereo not drawn)")
"> 60%"
>>> reported_result("CC(=O)c1c(C)c2cnc(Nc3ccc(N4CCN(C(=O)N5CCN(CCN6CCN(c7ccc8c(c7)CN(C7CCC(=O)NC7=O)C8=O)CC6)CC5)CC4)cn3)nc2n(C2CCCC2)c1=O (stereo not drawn)")
"> 60%"
>>> reported_result("CC(=O)c1c(C)c2cnc(Nc3ccc(N4CCN(C(=O)N5CCC(CCN6CCN(c7ccc8c(c7)CN(C7CCC(=O)NC7=O)C8=O)CC6)CC5)CC4)cn3)nc2n(C2CCCC2)c1=O (stereo not drawn)")
"> 60%"

###

# SYSTEM NAME: CDK6 (Homo sapiens)
# Construct: endogenous in cells
# TEST SUMMARY: CDK6 degradation (DC50, Dmax)
# Assay type: cell-based
EXPERIMENTAL ENDPOINT: Dmax

>>> reported_result("CC(=O)c1c(C)c2cnc(Nc3ccc(N4CCN(CCCNc5ccc(N6CCC(=O)NC6=O)cc5)CC4)cn3)nc2n(C2CCCC2)c1=O [Compound 105]")
"> 80%"
>>> reported_result("CC(=O)c1c(C)c2cnc(Nc3ccc(N4CCN(CCN5CCN(c6ccc7c(c6)CN(C6CCC(=O)NC6=O)C7=O)CC5)CC4)cn3)nc2n(C2CCCC2)c1=O (stereo not drawn) [Compound 68]")
"> 80%"
>>> reported_result("Cc1nc2c(F)cc(-c3nc(Nc4ccc(CN5CCN(CC6CCN(c7ccc(NC8CCC(=O)NC8=O)cc7)CC6)CC5)cn4)ncc3F)cc2n1C(C)C (stereo not drawn) [Compound 152]")
"> 80%"
>>> reported_result("Cc1nc2c(F)cc(-c3nc(Nc4ccc(CN5CCN(CC6CCN(c7ccc8c(c7)C(=O)N(C7CCC(=O)NC7=O)C8=O)CC6)CC5)cn4)ncc3F)cc2n1C(C)C (stereo not drawn) [Compound 149]")
"> 80%"
>>> reported_result("CC(=O)c1c(C)c2cnc(Nc3ccc(N4CCN(C(=O)N5CCN(c6ccc7c(c6)C(=O)N(C6CCC(=O)NC6=O)C7=O)CC5)CC4)cn3)nc2n(C2CCCC2)c1=O (stereo not drawn) [Compound 1]")
"> 60%"
>>> reported_result("CC(=O)c1c(C)c2cnc(Nc3ccc(N4CCN(CCCN(C)c5ccc6c(c5)C(=O)N(C5CCC(=O)NC5=O)C6=O)CC4)cn3)nc2n(C2CCCC2)c1=O (stereo not drawn) [Compound 57]")
"> 60%"

###

# SYSTEM NAME: CDK6 (Homo sapiens, UniProt Q00534)
# Construct: endogenous in cells
# Sequence (Q00534 whole entry): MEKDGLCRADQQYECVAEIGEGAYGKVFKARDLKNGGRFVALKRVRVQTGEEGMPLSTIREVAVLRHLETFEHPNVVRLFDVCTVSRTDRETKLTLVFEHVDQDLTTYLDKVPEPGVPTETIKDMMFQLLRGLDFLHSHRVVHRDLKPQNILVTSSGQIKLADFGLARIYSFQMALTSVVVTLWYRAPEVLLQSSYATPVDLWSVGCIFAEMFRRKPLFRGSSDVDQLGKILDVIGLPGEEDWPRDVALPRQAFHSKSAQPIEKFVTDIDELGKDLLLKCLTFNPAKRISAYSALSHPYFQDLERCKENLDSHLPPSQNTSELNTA
# TEST SUMMARY: CDK6 degradation (DC50, Dmax)
# Assay type: cell-based
Each record here notes measured DC50.
EXPERIMENTAL ENDPOINT: DC50

>>> reported_result("CC(=O)c1c(C)c2cnc(Nc3ccc(N4CCN(CC5CCN(C(=O)N6CCC(N7CCN(c8ccc9c(c8)C(=O)N(C8CCC(=O)NC8=O)C9=O)CC7)CC6)CC5)CC4)cn3)nc2n(C2CCCC2)c1=O (stereo not shown)")
"> 0.2 µM"
>>> reported_result("CC(=O)c1c(C)c2cnc(Nc3ccc(C4CCN(CC5CN(c6ccc7c(c6)CN(C6CCC(=O)NC6=O)C7=O)C5)CC4)cn3)nc2n(C2CCCC2)c1=O (stereo not shown)")
"< 0.05 µM"
>>> reported_result("CC(=O)c1c(C)c2cnc(Nc3ccc(N4CCN(CCCNc5ccc(N6CCC(=O)NC6=O)cc5)CC4)cn3)nc2n(C2CCCC2)c1=O")
"< 0.05 µM"
>>> reported_result("Cc1nc2c(F)cc(-c3nc(Nc4ccc(CN5CCN(CCNc6ccc7c(c6)C(=O)N(C6CCC(=O)NC6=O)C7=O)CC5)cn4)ncc3F)cc2n1C(C)C (stereo not shown)")
"< 0.05 µM"
>>> reported_result("CC(=O)c1c(C)c2cnc(Nc3ccc(C4CCN(C(=O)C5CN(c6ccc(C(=O)NC7CCC(=O)NC7=O)cc6)C5)CC4)cn3)nc2n(C2CCCC2)c1=O (stereo not shown)")
"0.05 to 0.2 µM"
>>> reported_result("Cc1nc2c(F)cc(-c3nc(Nc4ccc(CN5CCN(C(=O)C6CN(c7ccc(NC8CCC(=O)NC8=O)cc7)C6)CC5)cn4)ncc3F)cc2n1C(C)C (stereo not shown)")
"0.05 to 0.2 µM"
>>> reported_result("CC(=O)c1c(C)c2cnc(Nc3ccc(C4CCN(C(=O)C5CN(c6ccc(NC7CCC(=O)NC7=O)cc6)C5)CC4)cn3)nc2n(C2CCCC2)c1=O (stereo not shown)")
"< 0.05 µM"
>>> reported_result("CC(=O)c1c(C)c2cnc(Nc3ccc(C4CCN(C(=O)C5CN(c6ccc7c(c6)C(=O)N(C6CCC(=O)NC6=O)C7=O)C5)CC4)cn3)nc2n(C2CCCC2)c1=O (stereo not shown)")
"0.05 to 0.2 µM"
>>> reported_result("CC(=O)c1c(C)c2cnc(Nc3ccc(N4CCN(C(=O)N5CCC(CCN6CCC(c7ccc8c(c7)C(=O)N(C7CCC(=O)NC7=O)C8=O)CC6)CC5)CC4)cn3)nc2n(C2CCCC2)c1=O (stereo not shown)")
"> 0.2 µM"
>>> reported_result("CC(=O)c1c(C)c2cnc(Nc3ccc(N4CCN(C5CCN(c6ccc(N7CCC(=O)NC7=O)cc6)CC5)CC4)cn3)nc2n(C2CCCC2)c1=O")
"< 0.05 µM"
>>> reported_result("CC(=O)c1c(C)c2cnc(Nc3ccc(N4CCN(CCNc5ccc6c(c5)C(=O)N(C5CCC(=O)NC5=O)C6=O)CC4)cn3)nc2n(C2CCCC2)c1=O (stereo not shown)")
"< 0.05 µM"
>>> reported_result("CC(=O)c1c(C)c2cnc(Nc3ccc(N4CCN(C(=O)C5CCN(c6ccc(NC7CCC(=O)NC7=O)cc6)CC5)CC4)cn3)nc2n(C2CCCC2)c1=O (stereo not shown)")
"0.05 to 0.2 µM"
>>> reported_result("CC(=O)c1c(C)c2cnc(Nc3ccc(N4CCN(CCCN(C)c5ccc6c(c5)CN(C5CCC(=O)NC5=O)C6=O)CC4)cn3)nc2n(C2CCCC2)c1=O (stereo not shown)")
"0.05 to 0.2 µM"
>>> reported_result("Cc1nc2c(F)cc(-c3nc(Nc4ccc(CN5CCN(CCNc6ccc7c(c6)C(=O)N(C6CCC(=O)NC6=O)C7)CC5)cn4)ncc3F)cc2n1C(C)C (stereo not shown)")
"< 0.05 µM"
>>> reported_result("CC(=O)c1c(C)c2cnc(Nc3ccc(N4CCN(CC5CCN(c6cccc7c6C(=O)N(C6CCC(=O)NC6=O)C7=O)CC5)CC4)cn3)nc2n(C2CCCC2)c1=O (stereo not shown)")
"0.05 to 0.2 µM"
>>> reported_result("Cc1nc2c(F)cc(-c3nc(Nc4ccc(CN5CCN(C(=O)C6CCN(c7ccc8c(c7)CN(C7CCC(=O)NC7=O)C8=O)CC6)CC5)cn4)ncc3F)cc2n1C(C)C (stereo not shown)")
"> 0.2 µM"
>>> reported_result("CC(=O)c1c(C)c2cnc(Nc3ccc(N4CCN(CC5CCN(C(=O)N6CCC(CCN7CCN(c8ccc9c(c8)C(=O)N(C8CCC(=O)NC8=O)C9=O)CC7)CC6)CC5)CC4)cn3)nc2n(C2CCCC2)c1=O (stereo not shown)")
"> 0.2 µM"
>>> reported_result("CC(=O)c1c(C)c2cnc(Nc3ccc(N4CCN(C(=O)N5CCN(c6ccc7c(c6)CN(C6CCC(=O)NC6=O)C7=O)CC5)CC4)cn3)nc2n(C2CCCC2)c1=O (stereo not shown)")
"> 0.2 µM"
>>> reported_result("CC(=O)c1c(C)c2cnc(Nc3ccc(N4CCN(C5CCN(C(=O)N6CCC(c7ccc8c(c7)CN(C7CCC(=O)NC7=O)C8=O)CC6)CC5)CC4)cn3)nc2n(C2CCCC2)c1=O (stereo not shown)")
"> 0.2 µM"
>>> reported_result("CC(=O)c1c(C)c2cnc(Nc3ccc(N4CCN(CCCCNc5ccc6c(c5)CN(C5CCC(=O)NC5=O)C6=O)CC4)cn3)nc2n(C2CCCC2)c1=O (stereo not shown)")
"0.05 to 0.2 µM"
>>> reported_result("Cc1nc2c(F)cc(-c3nc(Nc4ccc(CN5CCN(C6CN(c7cccc8c7CN(C7CCC(=O)NC7=O)C8=O)C6)CC5)cn4)ncc3F)cc2n1C(C)C (stereo not shown)")
"0.05 to 0.2 µM"
>>> reported_result("Cc1nc2c(F)cc(-c3nc(Nc4ccc(CN5CCN(CCCNc6ccc7c(c6)C(=O)N(C6CCC(=O)NC6=O)C7=O)CC5)cn4)ncc3F)cc2n1C(C)C (stereo not shown)")
"< 0.05 µM"
